target: GST-Hu-p50 (Homo sapiens, UniProt P19838 7-356); assay: protein-binding microarray (PBM); PBM: ~300 nM protein, 6 mM HEPES pH 7.8, 80 mM KCl, 0.5 mM EDTA, 0.5 mM EGTA, 6% glycerol, 35 ng/ul poly-dIdC, 1% milk, 1 h, room temperature; high values mean tight binding; settings: dsDNA, one strand shown
Sequence (P19838 7-356): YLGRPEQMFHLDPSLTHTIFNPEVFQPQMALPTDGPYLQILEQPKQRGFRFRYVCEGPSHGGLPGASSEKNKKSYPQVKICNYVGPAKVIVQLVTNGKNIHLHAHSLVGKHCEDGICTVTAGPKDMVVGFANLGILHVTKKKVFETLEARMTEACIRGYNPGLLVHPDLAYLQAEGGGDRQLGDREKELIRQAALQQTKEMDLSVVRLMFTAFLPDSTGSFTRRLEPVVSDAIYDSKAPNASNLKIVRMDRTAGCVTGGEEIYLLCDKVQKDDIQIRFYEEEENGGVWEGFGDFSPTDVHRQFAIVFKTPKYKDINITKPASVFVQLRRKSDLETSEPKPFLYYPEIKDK

| sequenceContent | systemName | binding signal |
| --- | --- | --- |
| CCGATTAACATCACGGACACCCCTGATGTTAATCGGGTCTTGATTCGCTTGACGCTGCTG | GST-Hu-p50 (Homo sapiens, UniProt P19838 7-356) | 1.06 z-score |
| CCGATTAACATCAGGGAACCCCATGATGTTAATCGGGTCTTGATTCGCTTGACGCTGCTG | GST-Hu-p50 (Homo sapiens, UniProt P19838 7-356) | 2.54 z-score |
| CCGATTAACATCACGTAAACCCCTGATGTTAATCGGGTCTTGATTCGCTTGACGCTGCTG | GST-Hu-p50 (Homo sapiens, UniProt P19838 7-356) | 3.75 z-score |
| CCGATTAACATCAAGGAATTTCCTGATGTTAATCGGGTCTTGATTCGCTTGACGCTGCTG | GST-Hu-p50 (Homo sapiens, UniProt P19838 7-356) | 1.48 z-score |
| CCGATTAACATCAGAAATTTTCCTGATGTTAATCGGGTCTTGATTCGCTTGACGCTGCTG | GST-Hu-p50 (Homo sapiens, UniProt P19838 7-356) | 2.13 z-score |

###

molecular target: GST-Hu-p50 (Homo sapiens, UniProt P19838 7-356); test: protein-binding microarray (PBM); PBM: ~300 nM protein, 6 mM HEPES pH 7.8, 80 mM KCl, 0.5 mM EDTA, 0.5 mM EGTA, 6% glycerol, 35 ng/ul poly-dIdC, 1% milk, 1 h, room temperature; high values mean tight binding; settings: dsDNA, one strand shown

| sequenceContent | systemName | valueUnits | binding signal |
| --- | --- | --- | --- |
| CCGATTAACATCACGGGGTTCCCTGATGTTAATCGGGTCTTGATTCGCTTGACGCTGCTG | GST-Hu-p50 (Homo sapiens, UniProt P19838 7-356) | z-score | 2.59 |
| CCGATTAACATCAAAATTCCACCTGATGTTAATCGGGTCTTGATTCGCTTGACGCTGCTG | GST-Hu-p50 (Homo sapiens, UniProt P19838 7-356) | z-score | 3.61 |
| CCGATTAACATCAGGAGGCCCCCTGATGTTAATCGGGTCTTGATTCGCTTGACGCTGCTG | GST-Hu-p50 (Homo sapiens, UniProt P19838 7-356) | z-score | 2.78 |
| CCGATTAACATCACAAACTTCCCTGATGTTAATCGGGTCTTGATTCGCTTGACGCTGCTG | GST-Hu-p50 (Homo sapiens, UniProt P19838 7-356) | z-score | 2.88 |
| CCGATTAACATCAGGAAAACACCTGATGTTAATCGGGTCTTGATTCGCTTGACGCTGCTG | GST-Hu-p50 (Homo sapiens, UniProt P19838 7-356) | z-score | 4.77 |
| CCGATTAACATCAGGAATCACCCTGATGTTAATCGGGTCTTGATTCGCTTGACGCTGCTG | GST-Hu-p50 (Homo sapiens, UniProt P19838 7-356) | z-score | 3.31 |
| CCGATTAACATCAAAATTTTCCTTGATGTTAATCGGGTCTTGATTCGCTTGACGCTGCTG | GST-Hu-p50 (Homo sapiens, UniProt P19838 7-356) | z-score | 1.03 |
| CCGATTAACATCAGGGGATGGGATGATGTTAATCGGGTCTTGATTCGCTTGACGCTGCTG | GST-Hu-p50 (Homo sapiens, UniProt P19838 7-356) | z-score | 2.85 |
| CCGATTAACATCAAAAATCACCCTGATGTTAATCGGGTCTTGATTCGCTTGACGCTGCTG | GST-Hu-p50 (Homo sapiens, UniProt P19838 7-356) | z-score | 4.76 |

###

Below, each of the sequences is paired with its reported binding signal value.
Target: GST-Nv-NF-kB (Ser allele) (Nematostella vectensis, UniProt A7UNT2 2-411)
Sequence: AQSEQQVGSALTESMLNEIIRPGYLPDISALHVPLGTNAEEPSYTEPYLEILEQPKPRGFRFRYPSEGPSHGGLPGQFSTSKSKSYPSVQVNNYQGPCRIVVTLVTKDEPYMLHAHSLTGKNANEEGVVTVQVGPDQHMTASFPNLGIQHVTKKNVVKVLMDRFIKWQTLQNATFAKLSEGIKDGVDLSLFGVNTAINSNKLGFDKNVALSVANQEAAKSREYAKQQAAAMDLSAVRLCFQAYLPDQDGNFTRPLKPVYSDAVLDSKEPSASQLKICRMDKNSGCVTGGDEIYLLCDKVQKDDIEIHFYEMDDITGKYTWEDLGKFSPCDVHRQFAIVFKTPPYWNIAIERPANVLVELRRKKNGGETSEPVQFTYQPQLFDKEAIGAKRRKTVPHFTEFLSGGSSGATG
Assay: protein-binding microarray (PBM); PBM: ~300 nM protein, 6 mM HEPES pH 7.8, 80 mM KCl, 0.5 mM EDTA, 0.5 mM EGTA, 6% glycerol, 35 ng/ul poly-dIdC, 1% milk, 1 h, room temperature; Ap Aiptasia and Nv Nematostella (sea anemones) / Co Capsaspora / Aq Amphimedon (sponge) / Dm Drosophila / Hu human; RHD is the Rel homology domain; high values mean tight binding
Conditions: dsDNA, one strand shown
observationType: binding signal (z-score)

| sequenceContent | valueUnits | numericReadout |
| --- | --- | --- |
| CCGATTAACATCAGGGAAATAACTGATGTTAATCGGGTCTTGATTCGCTTGACGCTGCTG | z-score | 4.37 |
| CCGATTAACATCACCAGTTTCCCTGATGTTAATCGGGTCTTGATTCGCTTGACGCTGCTG | z-score | 4.89 |
| CCGATTAACATCAGGGGGGGTGATGATGTTAATCGGGTCTTGATTCGCTTGACGCTGCTG | z-score | 3.98 |
| CCGATTAACATCAAAAAAACACCTGATGTTAATCGGGTCTTGATTCGCTTGACGCTGCTG | z-score | 5.3 |
| CCGATTAACATCAAAAAAAGTACTGATGTTAATCGGGTCTTGATTCGCTTGACGCTGCTG | z-score | 1.16 |
| CCGATTAACATCAAACAGGGAAATGATGTTAATCGGGTCTTGATTCGCTTGACGCTGCTG | z-score | 3.74 |
| CCGATTAACATCAACAGGGAAAATGATGTTAATCGGGTCTTGATTCGCTTGACGCTGCTG | z-score | 5.98 |
| CCGATTAACATCAAGAAATTTCCTGATGTTAATCGGGTCTTGATTCGCTTGACGCTGCTG | z-score | 1.55 |
| CCGATTAACATCAGGGAACTACCTGATGTTAATCGGGTCTTGATTCGCTTGACGCTGCTG | z-score | 4.46 |
| CCGATTAACATCAAGGGGGGGAATGATGTTAATCGGGTCTTGATTCGCTTGACGCTGCTG | z-score | 6 |
| CCGATTAACATCAAGGGACTTCCTGATGTTAATCGGGTCTTGATTCGCTTGACGCTGCTG | z-score | 5.97 |
| CCGATTAACATCATTTTACCTTGTGATGTTAATCGGGTCTTGATTCGCTTGACGCTGCTG | z-score | 3.39 |
| CCGATTAACATCAGGGGGGATACTGATGTTAATCGGGTCTTGATTCGCTTGACGCTGCTG | z-score | 4.8 |
| CCGATTAACATCAGGGAGTTTACTGATGTTAATCGGGTCTTGATTCGCTTGACGCTGCTG | z-score | 3.63 |
| CCGATTAACATCAGGGGTTACCCTGATGTTAATCGGGTCTTGATTCGCTTGACGCTGCTG | z-score | 4.21 |
| CCGATTAACATCAGGGAAAAGGATGATGTTAATCGGGTCTTGATTCGCTTGACGCTGCTG | z-score | 4.08 |
| CCGATTAACATCAGATCCCCCCCTGATGTTAATCGGGTCTTGATTCGCTTGACGCTGCTG | z-score | 5.97 |
| CCGATTAACATCAAATTCCCTTATGATGTTAATCGGGTCTTGATTCGCTTGACGCTGCTG | z-score | 6.07 |
| CCGATTAACATCAGGGGTGGGAATGATGTTAATCGGGTCTTGATTCGCTTGACGCTGCTG | z-score | 1.67 |
| CCGATTAACATCAGAAATTTACCTGATGTTAATCGGGTCTTGATTCGCTTGACGCTGCTG | z-score | 4.13 |
| CCGATTAACATCAGAAGTTCCCATGATGTTAATCGGGTCTTGATTCGCTTGACGCTGCTG | z-score | 1.1 |
| CCGATTAACATCAGGGATTACCATGATGTTAATCGGGTCTTGATTCGCTTGACGCTGCTG | z-score | 2.16 |
| CCGATTAACATCACGGTGGGAAATGATGTTAATCGGGTCTTGATTCGCTTGACGCTGCTG | z-score | 2.58 |
| CCGATTAACATCAAAATCACCCCTGATGTTAATCGGGTCTTGATTCGCTTGACGCTGCTG | z-score | 3.66 |
| CCGATTAACATCAGGGGGAACAATGATGTTAATCGGGTCTTGATTCGCTTGACGCTGCTG | z-score | 6.27 |
| CCGATTAACATCAAGGGGGGGGATGATGTTAATCGGGTCTTGATTCGCTTGACGCTGCTG | z-score | 5.62 |
| CCGATTAACATCAAAAGAATCCCTGATGTTAATCGGGTCTTGATTCGCTTGACGCTGCTG | z-score | 2.43 |
| CCGATTAACATCAGGAATGTACCTGATGTTAATCGGGTCTTGATTCGCTTGACGCTGCTG | z-score | 3.2 |
| CCGATTAACATCAGGGGTTTACCTGATGTTAATCGGGTCTTGATTCGCTTGACGCTGCTG | z-score | 4.43 |
| CCGATTAACATCACGGGAAACCCTGATGTTAATCGGGTCTTGATTCGCTTGACGCTGCTG | z-score | 3.35 |
| CCGATTAACATCAATCACCCCCATGATGTTAATCGGGTCTTGATTCGCTTGACGCTGCTG | z-score | 2.78 |
| CCGATTAACATCAGGGAAATATATGATGTTAATCGGGTCTTGATTCGCTTGACGCTGCTG | z-score | 5.62 |
| CCGATTAACATCAAAAACTACCCTGATGTTAATCGGGTCTTGATTCGCTTGACGCTGCTG | z-score | 4.59 |
| CCGATTAACATCAATCGTCCCCCTGATGTTAATCGGGTCTTGATTCGCTTGACGCTGCTG | z-score | 4.3 |
| CCGATTAACATCAAATAAATCCCTGATGTTAATCGGGTCTTGATTCGCTTGACGCTGCTG | z-score | 3.53 |
| CCGATTAACATCAACGGGAATTCTGATGTTAATCGGGTCTTGATTCGCTTGACGCTGCTG | z-score | 5.37 |
